# measurementTarget: B7-1/CD28 (Homo sapiens)
# Sequence (P33681 35-242 limits assumed): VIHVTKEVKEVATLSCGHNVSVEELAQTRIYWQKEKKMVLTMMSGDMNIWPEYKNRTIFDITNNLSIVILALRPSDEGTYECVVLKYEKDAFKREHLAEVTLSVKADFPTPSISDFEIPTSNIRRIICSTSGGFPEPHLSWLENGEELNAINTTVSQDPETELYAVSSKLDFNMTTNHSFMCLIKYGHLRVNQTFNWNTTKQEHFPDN
# assayOverview: CD28/B7-1 ELISA (B7-1/CD28 binding inhibition)
# measurementParameters: CD28-Fc coated wells; B7-1-Fc-biotin/streptavidin-alkaline phosphatase detection complex; 1% DMSO
# Experimental: Evaluation of B7-1/CD28 Binding Inhibition for Test Compounds Wells are coated with 300 ng CD28-Fc in carbonate buffer (pH 9.4) overnight at 4° C., blocked with 1% bovine serum albumin in tris-buffered saline (TBS) for 1 h at 22° C. and washed 3 times in TBS prior to assay. […] The inhibition constant (IC50) is calculated by subtracting background binding and comparing to uninhibited (DMSO alone) controls. […]
pIC50: −log10 of the molar value.
Think of 7 as a floor: if pIC50 stands on it or above, it is criterion met; beneath it, criterion not met.

Answered examples (2):
Test whether the compound Cn1ncc2c3[nH]n(-c4ccc(C(=O)N5CCOCC5)cc4)c(=O)c3c(-c3cccc(C(F)(F)F)c3)nc21 records pIC50 of 7 or higher.
criterion met

Test whether the compound CCOC(=O)c1cccc(NC(=O)c2cccc(-n3[nH]c4c(c(-c5cccc(C(F)(F)F)c5)nc5c4cnn5C)c3=O)c2)c1 records pIC50 of 7 or higher.
criterion not met

More entries:
Test whether the compound Cn1ncc2c3[nH]n(-c4ccc(S(=O)(=O)NCC5CC5)cc4)c(=O)c3c(-c3cccc(C(F)(F)F)c3)nc21 records pIC50 of 7 or higher.
criterion not met

Test whether the compound Cn1ncc2c3[nH]n(-c4ccc(Cl)c(C(=O)N5CCC[C@@H]5CO)c4)c(=O)c3c(-c3cccc(C(F)(F)F)c3)nc21 records pIC50 of 7 or higher.
criterion met

###

metric: melting point

These recorded examples may help you get a feel for the data.
melting point recorded for this molecule, Cn1ncc2c3[nH]n(-c4ccc(C(=O)NCCCCO)cc4)c(=O)c3c(-c3cccc(C(F)(F)F)c3)nc21 , is 280 °C (dec.)

melting point recorded for this molecule, Cn1ncc2c3[nH]n(-c4ccc(C(=O)Nc5ccc(CCO)cc5)cc4)c(=O)c3c(-c3cccc(C(F)(F)F)c3)nc21 , is 186 to 189 °C

melting point recorded for this molecule, Cn1ncc2c3[nH]n(-c4cccc(C(=O)N5CCC[C@H]5C(=O)O)c4)c(=O)c3c(-c3cccc(C(F)(F)F)c3)nc21 , is 168 to 171 °C

melting point recorded for this molecule, CC(O)c1cccc(NC(=O)c2ccc(-n3[nH]c4c(c(-c5cccc(C(F)(F)F)c5)nc5c4cnn5C)c3=O)cc2)c1 (stereo not drawn) , is 251 to 254 °C

melting point recorded for this molecule, Cn1ncc2c3[nH]n(-c4ccc(C(=O)Nc5cccc6c5CCCC6O)cc4)c(=O)c3c(-c3cccc(C(F)(F)F)c3)nc21 (stereo not drawn) , is 298 °C (dec.)

More entries:
melting point recorded for this molecule, Cn1ncc2c3[nH]n(-c4cccc(C(=O)N5CCC[C@@H]5C(=O)O)c4)c(=O)c3c(-c3cccc(C(F)(F)F)c3)nc21 , is 199 to 202 °C

###

The following molecules are listed with their measured pIC50 values.
# measurementTarget: B7-1/CD28 (Homo sapiens)
# assayOverview: CD28/B7-1 ELISA (B7-1/CD28 binding inhibition)
# measurementParameters: CD28-Fc coated wells; B7-1-Fc-biotin/streptavidin-alkaline phosphatase detection complex; 1% DMSO
# reply with the number alone; pIC50 is -log10 of concentration in mol/L

These recorded examples may help you get a feel for the data.
Lab note: molecule Cn1ncc2c3[nH]n(-c4ccc(C(=O)Nc5cccc(CO)c5)cc4)c(=O)c3c(-c3cccc(C(F)(F)F)c3)nc21 tested on B7-1/CD28 (Homo sapiens); recorded pIC50 was 7.77

Lab note: molecule COc1cc(CNC(=O)c2cccc(-n3[nH]c4c(c(-c5cccc(C(F)(F)F)c5)nc5c4cnn5C)c3=O)c2)ccc1O tested on B7-1/CD28 (Homo sapiens); recorded pIC50 was 7.26

Lab note: molecule CCC(O)c1cccc(NC(=O)c2ccc(-n3[nH]c4c(c(-c5cccc(C(F)(F)F)c5)nc5c4cnn5C)c3=O)cc2)c1 (stereo not drawn) tested on B7-1/CD28 (Homo sapiens); recorded pIC50 was 6.10

Lab note: molecule Cn1ncc2c3[nH]n(-c4ccc(Cl)c(C(=O)NCc5ccc(O)c(O)c5)c4)c(=O)c3c(-c3cccc(C(F)(F)F)c3)nc21 tested on B7-1/CD28 (Homo sapiens); recorded pIC50 was 7.66

Lab note: molecule Cn1ncc2c3[nH]n(-c4cccc(C(=O)N5CCC(C(=O)O)CC5)c4)c(=O)c3c(-c3cccc(C(F)(F)F)c3)nc21 tested on B7-1/CD28 (Homo sapiens); recorded pIC50 was 6.07

Moving on to the next molecule.
Lab note: molecule Cn1ncc2c3[nH]n(-c4cccc(C(=O)NCc5ccccc5)c4)c(=O)c3c(-c3cccc(C(F)(F)F)c3)nc21 tested on B7-1/CD28 (Homo sapiens); recorded pIC50 was 6.92
